tested on: 786-0; assay: NCI tumour cell line growth inhibition, 48 h
Active and inactive are the calls of the source. No stated cut-off is given here; in the data, active = GI50 up to about 1.1 µM and inactive = higher.
Listing of entries alongside the reported GI50.
QUANTITY KIND: GI50

| COMPOUND | VAL |
| --- | --- |
| OC1=CN=C(c2ccccc2)Oc2ccccc21 | 46.7 µM (inactive) |
| C1=Cc2nc1c(-c1ccccc1)c1nc(c(-c3ccccc3)c3ccc([nH]3)c(-c3ccccc3)c3ccc([nH]3)c2-c2ccccc2)C=C1 | > 100 µM (inactive) |
| COc1ccccc1Nc1nc2c([nH]1)c(=O)n(C)c(=O)n2C | > 10 µM (inactive) |
| CC(/C=C/c1ccccc1)=N\NC(N)=S | 34 µM (inactive) |
| CC(c1ccccc1)N1CCN(C(C)c2ccccc2)CC1 (stereo not given) | > 100 µM (inactive) |
| CCOC(=O)C1=C(C)N(Cc2ccc(Cl)cc2Cl)C2(O)C(OC)CC(=O)C3C(=O)N(c4ccccc4)C(=O)C132 (stereo not given) | 1.47 µM (inactive) |
| C[C@]12CCC(=O)O[C@H]1CCCCO2 | > 100 µM (inactive) |
| CSc1nnc2n1-c1ccccc1SCC2 | > 100 µM (inactive) |
| CC(=O)OC1CCn2nnc(CO[Si](C)(C)C(C)(C)C)c21 (stereo not given) | > 100 µM (inactive) |
| CCOC(=O)c1c(SC(=O)C(C)(C)Oc2ccc(Cl)cc2)n(-c2ccccc2)c(=S)n(-c2ccccc2)c1=O | 27.6 µM (inactive) |

---

test system: HT-29; assay: NCI tumour cell line growth inhibition, 48 h
Calls of active or inactive are those of the source. Rule as the data show it: active = GI50 up to about 1.1 µM and inactive = higher.
Possible outcomes: active, inactive

| COMPOUND | STUDY SYSTEM | GROUP |
| --- | --- | --- |
| NC1=CN(Cc2ccccc2)C2=N/C(=C\c3ccccc3O)C(=O)N12 | HT-29 | inactive |
| CCCCSC1=N/C(=C\c2ccco2)C(Cl)=N1 | HT-29 | inactive |
| O=C(NCCCN(CCCCN(CCCNC(=O)C(F)(F)F)Cc1ccc2ccccc2c1)Cc1ccc2ccccc2c1)C(F)(F)F | HT-29 | inactive |
| COc1ccc(C2CC(=O)c3c(O)cc(O)cc3O2)cc1O (configuration not stated) | HT-29 | inactive |
| COc1ccc(/N=C2\C(=N/c3ccc(OC)cc3)N(c3ccc(N(C)C)cc3)C(=S)N2c2ccc(OC)cc2)cc1 | HT-29 | inactive |
| O=C(Nc1ccc2[nH]c3c(-c4ccccc4)nccc3c2c1)c1ccccc1[N+](=O)[O-] | HT-29 | inactive |
| O=C1Nc2ccccc2C(=O)O/C(Cc2ccccc2)=N\c2ccccc21 | HT-29 | inactive |
| C=CCc1c(C)nc(C)nc1N/N=C/C=C/c1ccccc1 | HT-29 | inactive |
| CCOC(=O)C1=NN(c2ccc(C)cc2)C2=CC(C)=NN(C)C(=S)N21 | HT-29 | inactive |
| CC(C)=CCC/C(=C\CC/C(=C\CCc1ccoc1)C(=O)O)C(=O)O | HT-29 | inactive |
| CCOC(=O)C1=C(C)N(Cc2ccc(Cl)cc2Cl)C2(O)C(OC)CC(=O)C3C(=O)N(c4ccccc4)C(=O)C132 (configuration not stated) | HT-29 | inactive |
| CCCNC(=O)Cn1c(-c2ccccc2)cc2ccccc21 | HT-29 | inactive |
| CSc1nc(NC2OCC(OC(C)=O)C(OC(C)=O)C2OC(C)=O)c(/N=C(\C)C(C)=O)c(=O)[nH]1 (configuration not stated) | HT-29 | inactive |
| COC(=O)Cc1cc(O)c2c(c1O)C(=O)c1ccccc1C2=O | HT-29 | inactive |
| CC(C)(C)C1=CC(=C2C=Cc3ccccc3O2)C=C(C(C)(C)C)C1=O | HT-29 | inactive |
| CCOC(=O)C=C1CCN(C(=O)c2ccccc2)CC1 | HT-29 | inactive |
| C[C@]12O[C@@]3(C)O[C@@]3(C)[C@]3(C)O[C@]3(C)[C@@]1(C)O2 | HT-29 | inactive |
| C#CCN(C(=O)C(F)(F)F)C(/C=C\C(=O)OC)(C(=O)OCC)C(=O)OCC | HT-29 | inactive |
| N#CC(c1ccccc1)N(CCc1ccccc1)C(=O)Oc1ccccc1 (configuration not stated) | HT-29 | inactive |
| CCOC(=O)c1nc(C)oc1C(F)(F)F | HT-29 | inactive |
| COc1ccc(NC2=NCCO2)c2c1CCCC2 | HT-29 | inactive |
| CC[C@@]1(OC(=O)CN(C)C)C(=O)OCc2c1cc1n(c2=O)Cc2cc3ccccc3nc2-1 | HT-29 | active |
| COc1cc2cc[n+]3c4cc(OC)c(OC)cc4c(C)cc3c2cc1OC | HT-29 | inactive |
| COC1=C(Cl)C(=O)c2c(O)ccc(O)c2C1=O | HT-29 | inactive |
| O=C(NC12CC3CCC1CC(C3)C2)[C@@H]1CCCN1C(=O)OCc1ccccc1 (some centres not stated) | HT-29 | inactive |
| CCCCCC(=O)Cc1cc(OC)cc2c1C(=O)Oc1cc(O)c(C(=O)O)c(CC(=O)CCCCC)c1O2 | HT-29 | inactive |
| O=C1OC(c2ccccc2)=N/C1=C\c1ccc2ccccc2c1 | HT-29 | inactive |
| C[C@H]1CC[C@H]([C@@H](C)[C@H]2[C@@H](O)C[C@H]3[C@@H]4CC[C@H]5C[C@@H](O)CC[C@]5(C)[C@H]4CC[C@]23C)NC1 | HT-29 | inactive |
| N#CC(c1ccnc(Cl)n1)c1nc2ccccc2s1 (configuration not stated) | HT-29 | inactive |
| C[C@]12CC[C@H]3[C@@H](CC=C4C[C@@H](O)CC[C@@]43C)[C@@H]1C[C@H](N1CCOCC1)[C@@H]2O | HT-29 | inactive |
| Cc1ccc(C(=O)C#Cc2cn(C3CC(O)C(CO)O3)c(=O)[nH]c2=O)cc1 (configuration not stated) | HT-29 | inactive |
| COC(=O)C(=O)C(C#N)c1cccc2ccccc12 (configuration not stated) | HT-29 | inactive |
| N#C/C(=C1\N=C(c2ccccc2O)Oc2ccccc21)c1ccc([N+](=O)[O-])cc1 | HT-29 | inactive |
| Nc1ccc2cc3ccc(N)cc3nc2c1 | HT-29 | active |
| C[C@]12CCC(=O)O[C@H]1CCCCO2 | HT-29 | inactive |
| O=C1CC2CCN(C(=O)c3ccccc3)CC2CCN1 (configuration not stated) | HT-29 | inactive |
| O=C(Nc1ccc(Cl)cc1)c1cc2cc(/N=N/c3ccccc3Cl)ccc2oc1=O | HT-29 | inactive |
| O=C(NCP(=O)(O)O)c1cccnc1 | HT-29 | inactive |
| COC(=O)CCc1ccc2c(c1)C(=O)CC2 | HT-29 | inactive |
| NC(=S)Nc1c(S(N)(=O)=O)cc(S(N)(=O)=O)c(Cl)c1Cl | HT-29 | inactive |
| COc1c(O)cc(/C=C/c2cc(O)cc3c2[C@@]2(C(=O)O3)c3c(O)cc(O)cc3OC2c2cccc(O)c2)cc1O (some centres not stated) | HT-29 | inactive |
| O=CC12C3CCC1C2C(=O)C3 (configuration not stated) | HT-29 | inactive |
